# System: HL60 cells
# Experiment Description: AsedaSciences SYSTEMETRIC Cell Health Screen (flow cytometry toxicity profiling)
# Condition Info: HL60, 4 h, 5 nM–100 µM, probability 0–1, n = 2
Parameter CC: Cell Cycle score: see the listing below.

- Compound: "C#Cc1cccc(Nc2ncnc3cc(F)ccc23)c1"
  Value: 0.59
- Compound: "COc1cc2ncnc(Nc3ccc(F)c(Cl)c3)c2cc1OCCCN1CCOCC1 [Gefitinib, reference compound]"
  Value: 0.93
- Compound: "CCCCc1oc2ccccc2c1C(=O)c1cc(I)c(OCCN(CC)CC)c(I)c1 [Amiodarone, reference compound]"
  Value: 0.96
- Compound: "Clc1cccc(Cl)c1N=C1NCCN1 [Clonidine, reference compound]"
  Value: 0.060
- Compound: "C#Cc1cc(Nc2ncnc3cc(OC)c(OC)cc23)ccc1F"
  Value: 0.027
- Compound: "[H]/N=C(/N)N/C(=N/[H])NCCc1ccccc1 [Phenformin, reference compound]"
  Value: 0.28

Field: next compound
Incoming: Give its CC: Cell Cycle score value. Item: CCOC(=O)N1CCC(=C2c3ccc(Cl)cc3CCc3cccnc32)CC1 [Loratadine, reference compound]
Outgoing: 0.84

====

Recorded CM: Cell morphology score, one value per entry.
# Tested on: HL60 cells
# Experiment Description: AsedaSciences SYSTEMETRIC Cell Health Screen (flow cytometry toxicity profiling)
# Condition Info: HL60, 4 h, 5 nM–100 µM, probability 0–1, n = 2
API doc: respond with a numeric literal and nothing else, no unit.

- Compound: "C#Cc1cccc(Nc2ccnc3ccc(I)cc23)c1F"
  System Name: "HL60 cells"
  Measurement Name: "CM: Cell morphology score"
  Value: 0.0052
- Compound: "C#Cc1cccc(Nc2ncnc3cc4c(cc23)OCO4)c1"
  System Name: "HL60 cells"
  Measurement Name: "CM: Cell morphology score"
  Value: 0.0019
- Compound: "CC(C)(C)c1ccc(C(O)CCCN2CCC(C(O)(c3ccccc3)c3ccccc3)CC2)cc1 (stereo not drawn) [Terfenadine, reference compound]"
  System Name: "HL60 cells"
  Measurement Name: "CM: Cell morphology score"
  Value: 1.00
- Compound: "CC(c1cc2ccccc2s1)N(O)C(N)=O (stereo not drawn) [Zileuton, reference compound]"
  System Name: "HL60 cells"
  Measurement Name: "CM: Cell morphology score"
  Value: 0.020
- Compound: "CC(C)NCC(O)COc1cccc2ccccc12 (stereo not drawn) [Propranolol, reference compound]"
  System Name: "HL60 cells"
  Measurement Name: "CM: Cell morphology score"
  Value: 0.060

Read the next record carefully.
Incoming: Test system HL60 cells; read-out CM: Cell morphology score; what value for C#Cc1cccc(Nc2ncnc3cc(OC)ccc23)c1 ?
Outgoing: 0.050

====

# Tested on: HL60 cells
# Experiment Description: AsedaSciences SYSTEMETRIC Cell Health Screen (flow cytometry toxicity profiling)
# Condition Info: HL60, 4 h, 5 nM–100 µM, probability (0–1) of high-risk class, n = 2
The threshold is 0.2. Values of CHI: Cell Health Index beneath it are tagged Y; values meeting or exceeding it are tagged N.

Record excerpt, results attached:
- Compound: "Cc1ccnc2c1NC(=O)c1cccnc1N2C1CC1 [Nevirapine, reference compound]"
  Class Label: "Y"
- Compound: "C#Cc1cccc(Nc2ncnc3cc(OC)ccc23)c1"
  Class Label: "N"
- Compound: "NC(=O)c1ncn([C@@H]2O[C@H](CO)[C@@H](O)[C@H]2O)n1 [Ribavirin, reference compound]"
  Class Label: "Y"
- Compound: "CC(CN1c2ccccc2Sc2ccccc21)N(C)C (stereo not shown) [Promethazine, reference compound]"
  Class Label: "N"

Incoming: # TODO verify CHI: Cell Health Index < 0.2 strictly for this compound: O=C1CC2(CCCC2)CC(=O)N1CCCCN1CCN(c2ncccn2)CC1 [Buspirone, reference compound]
Outgoing: N

Incoming: // same read-out, input: Cc1ccc(=O)n(-c2ccccc2)c1 [Pirfenidone, reference compound]
Outgoing: Y

Incoming: Also CC(c1cc2ccccc2s1)N(O)C(N)=O (stereo not shown) [Zileuton, reference compound] ?
Outgoing: Y
